For each entry below, report its IC50 value.
# assayedSystem: recombinant human ERβ (Homo sapiens)
# Construct: purchased PanVera Corporation (Madison, Wis.); host or cells: baculovirus-mediated expression system
# Sequence (Q92731 whole entry): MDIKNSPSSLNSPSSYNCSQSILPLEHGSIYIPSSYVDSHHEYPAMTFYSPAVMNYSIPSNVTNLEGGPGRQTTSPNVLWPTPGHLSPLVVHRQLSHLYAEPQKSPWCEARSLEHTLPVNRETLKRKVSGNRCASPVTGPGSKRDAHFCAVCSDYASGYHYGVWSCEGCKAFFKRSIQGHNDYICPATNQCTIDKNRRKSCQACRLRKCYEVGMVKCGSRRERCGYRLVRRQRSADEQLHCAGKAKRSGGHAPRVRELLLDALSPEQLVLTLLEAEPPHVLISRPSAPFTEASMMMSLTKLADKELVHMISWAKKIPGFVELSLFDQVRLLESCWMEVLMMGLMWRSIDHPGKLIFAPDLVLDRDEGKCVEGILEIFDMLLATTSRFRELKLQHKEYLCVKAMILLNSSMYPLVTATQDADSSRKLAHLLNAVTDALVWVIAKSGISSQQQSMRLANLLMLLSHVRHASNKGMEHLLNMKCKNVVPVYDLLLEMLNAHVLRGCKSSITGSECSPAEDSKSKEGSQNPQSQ
# measurementDescription: ERβ binding assay: competition of [3H]E2 binding by competing estrogens
# assaySetup: read-out: ERβ IC50

(Q) Consider the molecule shown here: COc1cc2c(cc1O)[C@H]1CC[C@]3(C)C(=O)CC[C@H]3[C@@H]1CC2 [2-OH-3-MeO-E1, 2-Hydroxyestrone 3-methyl ether] What is its recorded IC50?
(A) > 1 µM

(Q) Consider the molecule shown here: CC12CCC3c4ccc(O)c(O)c4CCC3C1CCC2=O (stereo not shown) [4-OH-E1, 4-Hydroxyestrone] What is its recorded IC50?
(A) 0.708 µM

(Q) Consider the molecule shown here: C[C@]12CC[C@@H]3c4ccc(OS(=O)(=O)O)cc4CC[C@H]3[C@@H]1CC[C@@H]2O [E2-3-sulfate, Estradiol 3-sulfate] What is its recorded IC50?
(A) > 1 µM

(Q) Consider the molecule shown here: CC12CCC3c4ccc(O)cc4C(=O)CC3C1CCC2=O (stereo not shown) [6-Keto-E1, 6-Ketoestrone] What is its recorded IC50?
(A) 0.891 µM

(Q) Consider the molecule shown here: C[C@]12CC[C@@H]3c4ccc(O)cc4CC[C@H]3[C@@H]1C[C@@H](O)[C@H]2O [16α-OH-E2-17α] What is its recorded IC50?
(A) 0.0112 µM

(Q) Consider the molecule shown here: C[C@]12CC[C@@H]3c4ccc(O)c(Br)c4CC[C@H]3[C@@H]1CC[C@@H]2O [4-Br-E2, 4-Bromoestradiol] What is its recorded IC50?
(A) 0.0251 µM

(Q) Consider the molecule shown here: C[C@]12CC[C@@H]3c4cc(N)c(O)cc4CC[C@H]3[C@@H]1CCC2=O [2-NH2-E1, 2-Aminoestrone] What is its recorded IC50?
(A) 2.51 µM

* * *

For each entry below, report its RBAα/RBAβ value.
# assayedSystem: recombinant human ERα (Homo sapiens)
# Construct: purchased PanVera Corporation (Madison, Wis.); host or cells: baculovirus-mediated expression system
# Sequence (P03372 1-595): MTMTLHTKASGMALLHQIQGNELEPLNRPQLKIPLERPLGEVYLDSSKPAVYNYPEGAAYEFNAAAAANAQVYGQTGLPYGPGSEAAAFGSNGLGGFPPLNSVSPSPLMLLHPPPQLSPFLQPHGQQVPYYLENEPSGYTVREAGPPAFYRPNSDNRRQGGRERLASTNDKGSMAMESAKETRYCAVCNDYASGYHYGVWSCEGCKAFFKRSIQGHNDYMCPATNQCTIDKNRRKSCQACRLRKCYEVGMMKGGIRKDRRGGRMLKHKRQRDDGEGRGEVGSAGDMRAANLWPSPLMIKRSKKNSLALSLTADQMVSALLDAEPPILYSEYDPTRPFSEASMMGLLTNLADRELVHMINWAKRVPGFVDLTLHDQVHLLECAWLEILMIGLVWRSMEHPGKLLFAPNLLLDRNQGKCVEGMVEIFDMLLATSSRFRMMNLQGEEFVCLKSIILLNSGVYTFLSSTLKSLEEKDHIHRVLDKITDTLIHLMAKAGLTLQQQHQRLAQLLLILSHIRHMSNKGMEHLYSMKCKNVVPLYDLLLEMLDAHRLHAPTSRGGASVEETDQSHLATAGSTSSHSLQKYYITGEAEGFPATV
# measurementDescription: ERα binding assay: competition of [3H]E2 binding by competing estrogens
# assaySetup: ratio of relative binding affinities ERα over ERβ
# Excerpt: The recombinant human ERα and ERβ proteins and bovine serum albumin (BSA) were obtained from PanVera Corporation (Madison, Wis.). According to the supplier, the recombinant human ERα and ERβ were produced in a baculovirus-mediated expression system, and they were soluble and functionally active, with post-translational modifications similar to those found in mammalian cells. See Reid et al., Human estrogen receptor-α: Regulation by synthesis, modification and degradation, Cell. Mol. Life. […]

(Q) Consider the compound shown here: CC[C@H](c1ccc(O)cc1)[C@@H](CC)c1ccc(O)cc1 [Hexestrol, reference compound] What is its recorded RBAα/RBAβ?
(A) 0.5

(Q) Consider the compound shown here: C[C@]12CC[C@@H]3c4ccc(O)cc4[C@H](O)C[C@H]3[C@@H]1CC[C@@H]2O [6β-OH-E2, 6β-Hydroxyestradiol] What is its recorded RBAα/RBAβ?
(A) 0.5

(Q) Consider the compound shown here: C[C@]12CC[C@@H]3c4ccc(O)cc4[C@@H](O)C[C@H]3[C@@H]1CC[C@@H]2O [6α-OH-E2, 6α-Hydroxyestradiol] What is its recorded RBAα/RBAβ?
(A) 1.5

(Q) Consider the compound shown here: C[C@@]12C=CC[C@H]1[C@@H]1CCc3cc(O)ccc3[C@H]1CC2 What is its recorded RBAα/RBAβ?
(A) 0.4

(Q) Consider the compound shown here: CC12CCC3c4cc(Br)c(O)cc4CCC3C1CCC2O (stereo not shown) [2-Br-E2, 2-Bromoestradiol] What is its recorded RBAα/RBAβ?
(A) 10

(Q) Consider the compound shown here: CC12CCC3c4ccc(O)c(O)c4CCC3C1CCC2=O (stereo not shown) [4-OH-E1, 4-Hydroxyestrone] What is its recorded RBAα/RBAβ?
(A) 2

(Q) Consider the compound shown here: CC12CCC3c4ccc(O)cc4C(=O)CC3C1CCC2O (stereo not shown) [6-Keto-E2, 6-Ketoestradiol] What is its recorded RBAα/RBAβ?
(A) 1.3

* * *

# assayedSystem: recombinant human ERα (Homo sapiens)
# Construct: purchased PanVera Corporation (Madison, Wis.); host or cells: baculovirus-mediated expression system
# Sequence (P03372 1-595): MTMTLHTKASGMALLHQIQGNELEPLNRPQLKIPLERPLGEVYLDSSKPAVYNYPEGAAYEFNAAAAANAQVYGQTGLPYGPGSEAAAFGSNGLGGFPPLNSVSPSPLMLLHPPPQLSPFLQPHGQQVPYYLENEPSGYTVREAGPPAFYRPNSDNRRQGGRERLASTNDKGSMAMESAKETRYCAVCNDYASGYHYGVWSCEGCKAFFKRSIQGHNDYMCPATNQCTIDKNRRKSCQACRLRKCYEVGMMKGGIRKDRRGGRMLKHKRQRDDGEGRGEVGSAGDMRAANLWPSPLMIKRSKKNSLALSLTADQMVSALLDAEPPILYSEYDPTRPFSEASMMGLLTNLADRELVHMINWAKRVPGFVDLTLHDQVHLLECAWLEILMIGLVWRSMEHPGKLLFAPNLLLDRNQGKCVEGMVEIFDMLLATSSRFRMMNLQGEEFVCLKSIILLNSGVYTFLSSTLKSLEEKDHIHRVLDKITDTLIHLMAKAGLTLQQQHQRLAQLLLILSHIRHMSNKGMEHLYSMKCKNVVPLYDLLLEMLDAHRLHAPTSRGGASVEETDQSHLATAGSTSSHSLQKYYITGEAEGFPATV
# measurementDescription: ERα binding assay: competition of [3H]E2 binding by competing estrogens
# assaySetup: read-out: ERα IC50
measurementName: pIC50
Lab note — pIC50 values are minus log10 of concentrations in M.

(Q) Consider the compound shown here: C[C@]12CC[C@@H]3c4ccc(O)c(O)c4CC[C@H]3[C@@H]1CC[C@@H]2O [4-OH-E2, 4-Hydroxyestradiol] What is its recorded pIC50?
(A) 7.80

(Q) Consider the compound shown here: CC12CCCC1C1CCc3cc(O)ccc3C1CC2 (centres unmarked) [17-Desoxy-E2, 17-Desoxyestradiol] What is its recorded pIC50?
(A) 7.15

(Q) Consider the compound shown here: C/C=C(/C(=C/C)c1ccc(O)cc1)c1ccc(O)cc1 [Dienestrol, reference compound] What is its recorded pIC50?
(A) 7.52

(Q) Consider the compound shown here: C[C@]12CC[C@@H]3c4cc([N+](=O)[O-])c(O)cc4CC[C@H]3[C@@H]1CCC2=O [2-NO2-E1, 2-Nitroestrone] What is its recorded pIC50?
(A) 5.80

(Q) Consider the compound shown here: CC12CCC3c4cc(O)c(O)cc4CCC3C1CCC2=O (centres unmarked) [2-OH-E1, 2-Hydroxyestrone] What is its recorded pIC50?
(A) 6.50

(Q) Consider the compound shown here: C[C@]12CC[C@@H]3c4ccc(O)cc4[C@@H](O)C[C@H]3[C@@H]1CC[C@@H]2O [6α-OH-E2, 6α-Hydroxyestradiol] What is its recorded pIC50?
(A) 6.70

(Q) Consider the compound shown here: CC12CCC3c4ccc(O)c([N+](=O)[O-])c4CCC3C1CCC2=O (centres unmarked) [4-NO2-E1, 4-Nitroestrone] What is its recorded pIC50?
(A) 6.35

(Q) Consider the compound shown here: CC12CCC3c4ccc(O)cc4C(=O)CC3C1CCC2=O (centres unmarked) [6-Keto-E1, 6-Ketoestrone] What is its recorded pIC50?
(A) 6.31

(Q) Consider the compound shown here: C[C@]12CC[C@@H]3c4cc(O)c(O)cc4CC[C@H]3[C@@H]1C[C@@H](O)[C@@H]2O [2-OH-E3, 2-Hydroxyestriol] What is its recorded pIC50?
(A) 6.30

(Q) Consider the compound shown here: C[C@]12CC[C@@H]3c4ccc(O)cc4C[C@@H](CCCCCCO)[C@H]3[C@@H]1CC[C@@H]2O [E2-7α-(CH2)6OH, 7α-(6-Hydroxyhexanyl)-17β-estradiol] What is its recorded pIC50?
(A) 7.38

(Q) Consider the compound shown here: Cc1c(O)ccc2c1CC[C@@H]1[C@@H]2CC[C@]2(C)[C@@H](O)CC[C@@H]12 [4-Methyl-E2, 4-Methylestradiol] What is its recorded pIC50?
(A) 6.90

(Q) Consider the compound shown here: C[C@]12CC[C@@H]3c4ccc(O)c(Br)c4CC[C@H]3[C@@H]1CC[C@@H]2O [4-Br-E2, 4-Bromoestradiol] What is its recorded pIC50?
(A) 6.80

(Q) Consider the compound shown here: C[C@]12CC[C@@H]3c4ccc(O)cc4CC[C@H]3[C@@H]1CC(=O)[C@@H]2O [16-Keto-E2, 16-Ketoestradiol] What is its recorded pIC50?
(A) 6.95
